ASSAYED_SYSTEM: PPARδ (Mus musculus, UniProt P35396)
Sequence (P35396 whole entry): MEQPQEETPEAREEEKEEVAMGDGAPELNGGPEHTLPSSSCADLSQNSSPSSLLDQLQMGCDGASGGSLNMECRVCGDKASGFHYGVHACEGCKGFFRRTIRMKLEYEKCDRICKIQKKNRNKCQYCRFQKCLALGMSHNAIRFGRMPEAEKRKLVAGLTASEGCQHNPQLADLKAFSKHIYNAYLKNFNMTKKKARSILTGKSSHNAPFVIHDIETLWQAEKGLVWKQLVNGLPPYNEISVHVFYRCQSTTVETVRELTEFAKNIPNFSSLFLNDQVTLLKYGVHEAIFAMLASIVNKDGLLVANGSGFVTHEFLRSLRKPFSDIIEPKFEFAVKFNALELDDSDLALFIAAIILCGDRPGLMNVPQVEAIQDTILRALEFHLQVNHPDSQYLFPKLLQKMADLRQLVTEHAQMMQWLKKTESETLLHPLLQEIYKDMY
TEST_SUMMARY: Mouse EC50 (PPARδ agonist)
ATTRIBUTE_MEASURED: EC50

MOLECULE: Cc1cnc(-c2ccc(C(F)(F)F)cc2)n1Cc1ccccc1OCCC[C@@H](C)CC(=O)O [Compound (I)]
ASSAYED_SYSTEM: PPARδ (Mus musculus, UniProt P35396)
ATTRIBUTE_MEASURED: EC50
EXPERIMENTAL_RESULT: 14 nM

Reference for the values: patent US20240358681A1
